The measured values listed here are drawn from patent US20070066682A1.

Biological target: UniProt:O70423
Sequence (O70423 whole entry): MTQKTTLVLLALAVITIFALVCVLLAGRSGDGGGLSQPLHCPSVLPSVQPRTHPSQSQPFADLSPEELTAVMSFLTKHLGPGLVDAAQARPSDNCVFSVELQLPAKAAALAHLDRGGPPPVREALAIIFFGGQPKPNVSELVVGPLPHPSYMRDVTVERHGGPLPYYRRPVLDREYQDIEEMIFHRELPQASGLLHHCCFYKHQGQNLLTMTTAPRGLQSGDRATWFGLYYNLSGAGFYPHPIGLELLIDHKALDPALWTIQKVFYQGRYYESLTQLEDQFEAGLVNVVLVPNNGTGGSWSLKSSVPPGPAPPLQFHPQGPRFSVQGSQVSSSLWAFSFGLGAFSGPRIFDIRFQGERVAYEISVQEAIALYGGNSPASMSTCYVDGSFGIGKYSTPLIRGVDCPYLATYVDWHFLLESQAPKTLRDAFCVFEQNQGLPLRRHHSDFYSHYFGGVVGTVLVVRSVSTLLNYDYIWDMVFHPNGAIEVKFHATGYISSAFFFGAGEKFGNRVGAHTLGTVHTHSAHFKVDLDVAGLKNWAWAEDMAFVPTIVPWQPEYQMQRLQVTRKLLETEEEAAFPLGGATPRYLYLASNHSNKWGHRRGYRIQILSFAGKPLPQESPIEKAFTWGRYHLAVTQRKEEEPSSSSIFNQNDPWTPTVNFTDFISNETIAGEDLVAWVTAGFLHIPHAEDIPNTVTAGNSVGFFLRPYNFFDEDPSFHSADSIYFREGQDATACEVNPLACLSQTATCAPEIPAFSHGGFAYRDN
Assay: SSAO activity, hydrogen peroxide production relative to benzylamine (mouse)
Format: biochemical
Conditions: compound at 100 μM
Method: The continuous spectrophotometric detection of SSAO-dependent H2O2 production based on a peroxidase-coupled reaction was performed as previously described by Abella et al. (2004, Diabetologia 47: 429-438) and following the procedure described by Holt et al., (1997, Anal. Biochem. 244: 384-392). Compounds listed in Table 1 were prepared according to the methods described above, purity was determined by HPLC at 220 nm, molecular weight calculated by mass spectrometer. […]
Each record here notes measured SSAO activity (% relative to benzylamine) Mouse.
Just the number please, in %, no unit attached.

Please review the entries below; each comes with its answer.
compound	unitsText	readoutNumber
NCc1ccc(OC(F)(F)F)cc1	%	66.20
NCCc1ccc(O)c(O)c1	%	0.00
COc1ccc(CN)c2ccccc12	%	0.00
NCc1ccc(C(F)(F)F)cc1	%	83.00
NCc1ccccc1F	%	44.0
COc1ccc(CN)cc1	%	4.56
COc1ccc(CN)c(OC)c1	%	0.00
CCCCc1ccc(CN)cc1	%	27.00
NCc1cccc2c1OCCO2	%	12.36
Cc1ccc(CN)cc1F	%	33.49

SSAO activity (% relative to benzylamine) Mouse for NCc1ccc(O)c(Br)c1 is 0.00

SSAO activity (% relative to benzylamine) Mouse for COc1ccc(CCN)cc1OC is 3.80

SSAO activity (% relative to benzylamine) Mouse for NCCc1ccc(F)cc1 is 59.80

SSAO activity (% relative to benzylamine) Mouse for NCc1ccc(F)cc1 is 77.20

SSAO activity (% relative to benzylamine) Mouse for COc1cccc(O)c1CN is 0.00
